target: SARS-CoV-2 main protease (M^pro) (Severe acute respiratory syndrome coronavirus 2); assay: Rapid-Fire MS Biochemical Assay measuring Mpro activity (5 nM Mpro); details: Table 1B, Mpro inhibition, 5 μM substrate peptide, 120 min, read-out: Rapid-Fire Assay IC50
Reported IC50 values for the following compounds.

Worked cases, IC50 given:
compound | IC50
N#C[C@H]1CN(c2ccc(OC(F)F)cc2)C(=O)N1c1cncc2ccccc12 (single isomer, unassigned) [Compound 71a] | < 20 nM
N#C[C@@H]1CN(c2cccc(Cl)c2)C(=O)N1c1cncc2ccc(C(=O)O)cc12 (single isomer, unassigned) [Compound 33b] | > 1000 nM

# input for lookup
Value of measured IC50 for the entry Cn1cc(N2C[C@@H](C#N)N(c3cncc4ccccc34)C2=O)cn1 (single isomer, unassigned) [Compound 65b] : > 1000 nM

###

Reported IC50 values for the following compounds.
biological target: SARS-CoV-2 main protease (M^pro) (Severe acute respiratory syndrome coronavirus 2, UniProt P0DTD1); test: Rapid-Fire MS Biochemical Assay measuring Mpro activity (5 nM Mpro); details: Table 1B, Mpro inhibition, 5 μM substrate peptide, 120 min, read-out: Rapid-Fire Assay IC50

Worked cases, IC50 given:
compound | obsValue
N#CC1CN(c2cccc(Cl)c2)C(=O)N1c1cncc2ccc(C(N)=O)cc12 (centres unmarked) [Compound 35] | < 20 nM
CS(=O)(=O)c1ccc2cncc(N3C(=O)N(c4ccc(F)c(F)c4)C[C@H]3C#N)c2c1 (single isomer, unassigned) [Compound 85b] | > 1000 nM
Cc1ccc(C#N)c(N2C[C@H](C#N)N(c3cncc4ccccc34)C2=O)c1 (single isomer, unassigned) [Compound 116a] | < 20 nM
N#Cc1ccc2cncc(N3C(=O)N(c4cccc(Cl)c4)C[C@@H]3C#N)c2c1 (single isomer, unassigned) [Compound 39a] | < 20 nM
COc1ccc(F)cc1N1C[C@H](C#N)N(c2cncc3ccccc23)C1=O (single isomer, unassigned) [Compound 105a] | < 20 nM

Value of measured IC50 for the entry Cc1c[nH]c(N2C[C@@H](C#N)N(c3cncc4ccccc34)C2=O)n1 (single isomer, unassigned) [Compound 118b] : > 1000 nM

Value of measured IC50 for the entry CC(C)(C)CN1C[C@@H](C#N)N(c2cncc3ccccc23)C1=O (single isomer, unassigned) [Compound 140b] : > 1000 nM

Value of measured IC50 for the entry N#C[C@H]1CN(C2CC3(CC3)C2)C(=O)N1c1cncc2ccccc12 (single isomer, unassigned) [Compound 125a] : < 20 nM

Value of measured IC50 for the entry N#C[C@H]1CN([C@H]2C[C@H](C3CC3)C2)C(=O)N1c1cncc2ccccc12 [Compound 124b] : < 20 nM

Value of measured IC50 for the entry N#Cc1ccc(N2C[C@H](C#N)N(c3cncc4ccccc34)C2=O)cc1 (single isomer, unassigned) [Compound 50a] : < 20 nM

Value of measured IC50 for the entry N#CC1CN(c2ccc(F)c(Cl)c2)C(=O)N1c1cncc2ccccc12 (racemic) [Compound 87] : < 20 nM

###

molecular target: SARS-CoV-2 main protease (M^pro) (Severe acute respiratory syndrome coronavirus 2); assay: Rapid-Fire MS Biochemical Assay measuring Mpro activity (12.5 nM Mpro); details: Table 1A, Mpro inhibition, 5 μM substrate peptide, 30 min
observedProperty: IC50

Worked cases, IC50 given:
compound | obsValue
N#CC1CN(c2ccccc2)C(=O)N1c1cncc2ccccc12 (racemic) [Compound 1] | 37 nM
N#C[C@@H]1CN(c2ccccc2)C(=O)N1c1cncc2ccccc12 (single isomer, unassigned) [Compound 1b] | 6400 nM
N#C[C@H]1CN(c2ccccc2)C(=O)N1c1cncc2ccccc12 (single isomer, unassigned) [Compound 1a] | 9 nM

Value of measured IC50 for the entry N#CC1CN(c2ccc(C(F)(F)F)cn2)C(=O)N1c1cncc2ccccc12 (racemic) [Compound 3] : 7 nM

###

Reported pIC50 values for the following compounds.
target: SARS-CoV-2 main protease (M^pro) (Severe acute respiratory syndrome coronavirus 2, UniProt P0DTD1); experiment: Rapid-Fire MS Biochemical Assay measuring Mpro activity (5 nM Mpro); details: Table 1B, Mpro inhibition, 5 μM substrate peptide, 120 min, read-out: Rapid-Fire Assay IC50
pIC50: −log10 of the molar value.

Worked cases, pIC50 given:
compound | observedProperty | obsValue
CC(C)(O)c1ccc(N2C[C@H](C#N)N(c3cncc4ccccc34)C2=O)cc1 (single isomer, unassigned) [Compound 84a] | pIC50 | 6.70 to 7.70
CC(C)n1cc(N2C[C@H](C#N)N(c3cncc4ccccc34)C2=O)cn1 (single isomer, unassigned) [Compound 64a] | pIC50 | > 7.70

Value of measured pIC50 for the entry N#C[C@H]1CN(c2cccc(OC(F)F)c2)C(=O)N1c1cncc2ccccc12 (single isomer, unassigned) [Compound 89a] : > 7.70

Value of measured pIC50 for the entry N#C[C@@H]1CN(c2cc(C(F)(F)F)cnn2)C(=O)N1c1cncc2ccccc12 (single isomer, unassigned) [Compound 30b] : < 6.00

Value of measured pIC50 for the entry N#C[C@@H]1CN(C2CC3(C2)CC(F)(F)C3)C(=O)N1c1cncc2ccccc12 (single isomer, unassigned) [Compound 127b] : < 6.00

Value of measured pIC50 for the entry CC(C)(C)CN1C[C@H](C#N)N(c2cncc3ccccc23)C1=O (single isomer, unassigned) [Compound 140a] : 6.70 to 7.70

Value of measured pIC50 for the entry COc1ccc(Cl)cc1N1C[C@H](C#N)N(c2cncc3ccccc23)C1=O (single isomer, unassigned) [Compound 115a] : > 7.70

Value of measured pIC50 for the entry N#C[C@@H]1CN(C2CN(CC(F)(F)F)C2)C(=O)N1c1cncc2ccccc12 (single isomer, unassigned) [Compound 133b] : 6.70 to 7.70

Value of measured pIC50 for the entry N#CC1CN(c2ccc(C(F)(F)F)cc2)C(=O)N1c1cncc2ccccc12 (racemic) : > 7.70

###

Reported IC50 values for the following compounds.
molecular target: SARS-CoV-2 main protease (M^pro) (Severe acute respiratory syndrome coronavirus 2, UniProt P0DTD1); test: Rapid-Fire MS Biochemical Assay measuring Mpro activity (5 nM Mpro); settings: Table 1B, Mpro inhibition, 5 μM substrate peptide, 120 min, read-out: Rapid-Fire Assay IC50

compound | IC50
Cc1ncccc1N1C[C@@H](C#N)N(c2cncc3ccccc23)C1=O (single isomer, unassigned) [Compound 74b] | > 1000 nM
Cc1ncc(N2C[C@@H](C#N)N(c3cncc4ccccc34)C2=O)cn1 (single isomer, unassigned) [Compound 79b] | > 1000 nM

Value of measured IC50 for the entry N#Cc1ccc(Cl)cc1N1C[C@@H](C#N)N(c2cncc3ccccc23)C1=O (single isomer, unassigned) [Compound 20b] : > 1000 nM

###

target: SARS-CoV-2 main protease (M^pro) (Severe acute respiratory syndrome coronavirus 2, UniProt P0DTD1); assay: Rapid-Fire MS Biochemical Assay measuring Mpro activity (5 nM Mpro); details: Table 1B, Mpro inhibition, 5 μM substrate peptide, 120 min, read-out: Rapid-Fire Assay IC50
Reported IC50 values for the following compounds.

Worked cases, IC50 given:
compound | obsValue
COc1ncc(C(F)(F)F)cc1N1C[C@H](C#N)N(c2cncc3ccccc23)C1=O (single isomer, unassigned) [Compound 100a] | < 20 nM
COc1ccc(Cl)cc1N1C[C@@H](C#N)N(c2cncc3ccccc23)C1=O (single isomer, unassigned) [Compound 115b] | > 1000 nM
N#C[C@H]1CN(c2cc(F)cc(F)c2)C(=O)N1c1cncc2ccccc12 (single isomer, unassigned) [Compound 110a] | < 20 nM
N#C[C@H]1CN([C@@H]2CCN(C(=O)CO)C2)C(=O)N1c1cncc2ccccc12 (single isomer, unassigned) [Compound 25a] | 200 to 1000 nM
N#C[C@H]1CN(c2cccc3cn[nH]c23)C(=O)N1c1cncc2ccccc12 (single isomer, unassigned) [Compound 63a] | < 20 nM

Value of measured IC50 for the entry N#C[C@H]1CN([C@H]2C[C@@H](C(F)(F)F)C2)C(=O)N1c1cncc2ccccc12 [Compound 45b] : 200 to 1000 nM

Value of measured IC50 for the entry CC(C)(O)c1cccc(N2C[C@H](C#N)N(c3cncc4ccccc34)C2=O)c1 (single isomer, unassigned) [Compound 69a] : 20 to 200 nM

Value of measured IC50 for the entry CC1(C)CC(N2C[C@@H](C#N)N(c3cncc4ccccc34)C2=O)C1 (single isomer, unassigned) [Compound 126b] : > 1000 nM

Value of measured IC50 for the entry N#C[C@@H]1CN([C@H]2CC[C@H](F)CC2)C(=O)N1c1cncc2ccccc12 [Compound 121c] : > 1000 nM

Value of measured IC50 for the entry N#C[C@H]1CN(c2cccc(C(F)F)c2)C(=O)N1c1cncc2ccccc12 (single isomer, unassigned) [Compound 22a] : < 20 nM

Value of measured IC50 for the entry CC(C)(O)c1ccc(N2C[C@@H](C#N)N(c3cncc4ccccc34)C2=O)cc1 (single isomer, unassigned) [Compound 84b] : > 1000 nM

Value of measured IC50 for the entry Cc1cnc(C(F)(F)F)cc1N1C[C@H](C#N)N(c2cncc3ccccc23)C1=O (single isomer, unassigned) [Compound 70a] : < 20 nM

Value of measured IC50 for the entry N#CC1CN(C2CCC(F)CC2)C(=O)N1c1cncc2ccccc12 (single isomer, unassigned) [Compound 121a] : < 20 nM
